Attribution: patent US6815440B2

# log10 IC50 per entry
system name: catalytic domain of neutrophil collagenase (Homo sapiens, UniProt P22894)
Construct: enzymatic activity of the catalytic domains of human stomelysine and of neutrophil collagenase; made in house
Sequence (P22894 100-262 limits assumed): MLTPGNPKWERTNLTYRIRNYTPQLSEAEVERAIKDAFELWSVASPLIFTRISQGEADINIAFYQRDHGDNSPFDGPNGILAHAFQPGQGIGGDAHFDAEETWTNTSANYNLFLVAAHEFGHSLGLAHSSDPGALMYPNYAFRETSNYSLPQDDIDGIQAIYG
experiment description: Enzyme inhibition, catalytic domain of neutrophil collagenase (fluorogenic substrate)
Format: biochemical
test context: hydroxamic acids up to and including Example 33; tris/HCl buffer pH=7.5; read-out: Neutrophil collagenase IC 50
Where a name gives a salt, the structure may show the parent alone.
observable: log10 IC50 (log10 of the value in nM)

                                    compound  data_value
 0  O=C(NO)[C@H]1Cc2c([nH]c3ccccc23)CN1S(=O)(=O)c1ccc(N2CCOCC2)cc1        1.85
 1  COc1ccc(S(=O)(=O)N2Cc3cc4c(cc3CC2C(=O)NO)OCO4)cc1 (stereo not drawn)        1.30
 2  O=C(Nc1ccc(S(=O)(=O)N2Cc3ccccc3C[C@@H]2C(=O)NO)cc1)OCc1ccccc1        2.90
 3  COc1ccc(S(=O)(=O)Oc2ccc3c(c2)CN(S(=O)(=O)c2ccc(OC)cc2)[C@@H](C(=O)NO)C3)cc1        0.90
 4  O=C(NO)[C@H]1Cc2ccccc2CN1S(=O)(=O)c1ccc(Oc2ccccc2)cc1 [Example 13c]        0.30
 5  O=C(NO)C1Cc2ccccc2CN1S(=O)(=O)c1ccc(C(O)c2ccccc2)cc1 (stereo not drawn)        2.48
 6  COc1ccc(S(=O)(=O)N2Cc3[nH]c4ccccc4c3C[C@@H]2C(=O)NO)cc1        0.48
 7  CCOC(=O)Nc1ccc(S(=O)(=O)N2Cc3ccccc3CC2C(=O)NO)cc1 (stereo not drawn)        1.48
 8  O=C(NO)[C@H]1Cc2ccccc2CN1S(=O)(=O)C1=CC2=CC=CCC2C=C1 (stereo partly drawn)        1.85
 9  CC(=O)Nc1ccc(S(=O)(=O)N2Cc3ccccc3CC2C(=O)NO)cc1 (stereo not drawn)        2.00
10  COc1ccc(S(=O)(=O)N2Cc3nc[nH]c3C[C@@H]2C(=O)NO)cc1 [Example 29, hydrochloride]        0.60
11  COc1ccc(S(=O)(=O)N2CCc3cc4c(cc3C2C(=O)NO)CCC4)cc1 (stereo not drawn)        0.60
12  COc1ccc(S(=O)(=O)N2Cc3c(cc(OC)c(OC)c3OC)CC2C(=O)NO)cc1 (stereo not drawn)        2.48
13  CCOC(=O)Oc1ccc2c(c1)CN(S(=O)(=O)c1ccc(OC)cc1)[C@@H](C(=O)NO)C2        0.30
14  CN(C)c1ccc(Oc2ccc(S(=O)(=O)N3Cc4ccccc4C[C@@H]3C(=O)NO)cc2)cc1        0.30
15  O=C(NO)C1Cc2ccccc2CN1S(=O)(=O)N1CCOCC1 (stereo not drawn)        2.48
16  CN(C)c1cccc2c(S(=O)(=O)N3Cc4ccccc4C[C@@H]3C(=O)NO)cccc12        2.30
17  O=C(NO)C1Cc2ccccc2CN1S(=O)(=O)c1ccc(-c2ccccc2)cc1 (stereo not drawn)       -0.70
18  O=C(NO)[C@H]1Cc2ccccc2CN1S(=O)(=O)c1ccc(-c2ccc(Cl)cc2)cc1        0.30
19  COc1ccc(CC(=O)Nc2cccc(S(=O)(=O)N3Cc4ccccc4CC3C(=O)NO)c2)cc1 (stereo not drawn)        2.30
20  COc1ccc(S(=O)(=O)N2c3ccccc3CC2C(=O)NO)cc1 (stereo not drawn)        2.85
21  COc1ccc(S(=O)(=O)N2Cc3cc([N+](=O)[O-])ccc3CC2C(=O)NO)cc1 (stereo not drawn)        0.90
22  O=C(c1ccccc1)c1ccc(S(=O)(=O)N2Cc3ccccc3C[C@@H]2C(=O)NO)cc1        0.48
23  O=C(NO)[C@H]1Cc2ccccc2CN1S(=O)(=O)c1ccc2oc3ccccc3c2c1        1.00
